Target: T1, VEGF (human, UniProt P15692-4 27-191, limits assumed)
T1 construct: Biotinylated in the KDR-IgG ELISA, amine-coupled to the chip in BIAcore; also called biotinylated VEGF; vascular endothelial growth factor
T1 sequence (P15692 other isoform, or with tags, fused parts or gaps limits assumed): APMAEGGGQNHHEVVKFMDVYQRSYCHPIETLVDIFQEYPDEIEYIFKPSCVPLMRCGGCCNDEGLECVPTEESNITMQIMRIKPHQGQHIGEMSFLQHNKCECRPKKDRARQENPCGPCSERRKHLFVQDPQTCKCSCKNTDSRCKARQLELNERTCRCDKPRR
Test: competitive phage-ELISA, relative to pY0192
Procedure: In such an assay, phages were first serially diluted to determine a fractional saturation titer which was then held constant and used to incubate with varying concentrations of VEGF (starting at 200 nM to 0 nM) in solution. […] Thereafter, the phage solution was removed and the remaining bound phages were detected with a solution of rabbit anti-phage antibody mixed with goat anti-rabbit conjugate of horse radish peroxidase. […] Optical density at 492 nm was measured on a spectrophotometric plate reader. […]
assayMetric: IC50 (mut)/IC50 (wt) (ratio)
The response must be a number in ratio with no trailing unit.

# count of solved cases: 5
[[record]]
binder = "pY0192 VL S53A (Fab, V domains shown, Ala-scan variant of pY0192; Fab on phage) VH: EVQLVESGGGLVQPGGSLRLSCAASGYTFTNYGINWVRQAPGKGLEWVGWINTYTGEPTYAADFKRRFTFSLDTSKSTAYLQMNSLRAEDTAVYYCAKYPHYYGSSHWYFDVWGQGTL VL: DIQLTQSPSSLSASVGDRVTITCRANEQLSNYLNWYQQKPGKAPKVLIYFTSALHSGVPSRFSGSGSGTDFTLTISSLQPEDFATYYCQQYSTVPWTFGQGTKVEIKR"
recordedresult = 1

[[record]]
binder = "pY0192 VL S30A (Fab, V domains shown, Ala-scan variant of pY0192; Fab on phage) VH: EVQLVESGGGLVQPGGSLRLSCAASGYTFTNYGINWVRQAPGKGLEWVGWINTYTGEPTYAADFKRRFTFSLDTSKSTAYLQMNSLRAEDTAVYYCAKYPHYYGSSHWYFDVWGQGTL VL: DIQLTQSPSSLSASVGDRVTITCRANEQLANYLNWYQQKPGKAPKVLIYFTSSLHSGVPSRFSGSGSGTDFTLTISSLQPEDFATYYCQQYSTVPWTFGQGTKVEIKR"
recordedresult = 2

[[record]]
binder = "pY0192 VL T97A (Fab, V domains shown, Ala-scan variant of pY0192; Fab on phage) VH: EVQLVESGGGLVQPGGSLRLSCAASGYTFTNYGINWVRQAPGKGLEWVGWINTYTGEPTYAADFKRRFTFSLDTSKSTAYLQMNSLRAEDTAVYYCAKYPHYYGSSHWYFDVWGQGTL VL: DIQLTQSPSSLSASVGDRVTITCRANEQLSNYLNWYQQKPGKAPKVLIYFTSSLHSGVPSRFSGSGSGTDFTLTISSLQPEDFATYYCQQYSTVPWAFGQGTKVEIKR"
recordedresult = 1

[[record]]
binder = "pY0192 VH T55A (Fab, V domains shown, Ala-scan variant of pY0192; Fab on phage) VH: EVQLVESGGGLVQPGGSLRLSCAASGYTFTNYGINWVRQAPGKGLEWVGWINTYAGEPTYAADFKRRFTFSLDTSKSTAYLQMNSLRAEDTAVYYCAKYPHYYGSSHWYFDVWGQGTL VL: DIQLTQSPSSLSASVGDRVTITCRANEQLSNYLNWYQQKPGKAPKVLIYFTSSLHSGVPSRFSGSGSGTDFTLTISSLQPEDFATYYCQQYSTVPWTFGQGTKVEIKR"
recordedresult = 4

[[record]]
binder = "pY0192 VH T28A (Fab, V domains shown, Ala-scan variant of pY0192; Fab on phage) VH: EVQLVESGGGLVQPGGSLRLSCAASGYAFTNYGINWVRQAPGKGLEWVGWINTYTGEPTYAADFKRRFTFSLDTSKSTAYLQMNSLRAEDTAVYYCAKYPHYYGSSHWYFDVWGQGTL VL: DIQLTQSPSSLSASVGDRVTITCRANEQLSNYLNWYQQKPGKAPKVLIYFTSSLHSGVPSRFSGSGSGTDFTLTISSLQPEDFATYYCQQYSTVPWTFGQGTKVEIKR"
recordedresult = 1


Req: Dear colleague, I am looking for the recorded IC50 (mut)/IC50 (wt) of the following binder: pY0192 VL A25S (Fab, V domains shown, Ala-scan variant of pY0192; Fab on phage) VH: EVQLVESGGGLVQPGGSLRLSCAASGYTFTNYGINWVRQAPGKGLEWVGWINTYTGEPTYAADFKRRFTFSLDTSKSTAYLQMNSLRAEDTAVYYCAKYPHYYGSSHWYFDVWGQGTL VL: DIQLTQSPSSLSASVGDRVTITCRSNEQLSNYLNWYQQKPGKAPKVLIYFTSSLHSGVPSRFSGSGSGTDFTLTISSLQPEDFATYYCQQYSTVPWTFGQGTKVEIKR
Resp: 1

Req: Dear colleague, I am looking for the recorded IC50 (mut)/IC50 (wt) of the following binder: pY0192 VL H55A (Fab, V domains shown, Ala-scan variant of pY0192; Fab on phage) VH: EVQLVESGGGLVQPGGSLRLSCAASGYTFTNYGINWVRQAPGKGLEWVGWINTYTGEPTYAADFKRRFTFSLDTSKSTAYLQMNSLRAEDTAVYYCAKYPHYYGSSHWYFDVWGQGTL VL: DIQLTQSPSSLSASVGDRVTITCRANEQLSNYLNWYQQKPGKAPKVLIYFTSSLASGVPSRFSGSGSGTDFTLTISSLQPEDFATYYCQQYSTVPWTFGQGTKVEIKR
Resp: 1

Req: Dear colleague, I am looking for the recorded IC50 (mut)/IC50 (wt) of the following binder: pY0192 VH H101A (Fab, V domains shown, Ala-scan variant of pY0192; Fab on phage) VH: EVQLVESGGGLVQPGGSLRLSCAASGYTFTNYGINWVRQAPGKGLEWVGWINTYTGEPTYAADFKRRFTFSLDTSKSTAYLQMNSLRAEDTAVYYCAKYPAYYGSSHWYFDVWGQGTL VL: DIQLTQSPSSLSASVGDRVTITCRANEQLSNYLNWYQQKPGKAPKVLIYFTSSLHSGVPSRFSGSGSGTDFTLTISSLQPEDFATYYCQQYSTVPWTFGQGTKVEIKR
Resp: 4

All values here come from patent US20050112126A1.
